# System: pressor response to AII
# ASSAY_METHOD_TEXT: Assay C: In Vivo Intragastric Pressor Assay Response for AII antagonists
# Parameters: species or system Sprague-Dawley rats
# EXPERIMENTAL_CONTEXT: Dose: 3 mg/kg (i.g.); inhibition of pressor response to 30 ng/kg AII bolus; conscious rats
# cutoff 40% applies to Assay C Inhibition (%); >= gives TRUE, < gives FALSE

Completed entries (count: 2):
CCCCc1cn(-c2c(C)cc(C)cc2C)c(=O)n1Cc1ccc(-c2ccccc2-c2nnn[nH]2)nc1 [Example 5] = TRUE
CCCCc1cn(-c2c(C)cccc2Cl)c(=O)n1Cc1ccc(-c2ccccc2-c2nnn[nH]2)nc1 [Example 4] = TRUE

Determine whether this molecule has Assay C Inhibition (%) no lower than 40%: CCCCc1cn(-c2c(CC)cccc2CC)c(=O)n1Cc1ccc(-c2ccccc2-c2nnn[nH]2)nc1 [Example 7] FALSE

Determine whether this molecule has Assay C Inhibition (%) no lower than 40%: CCCCc1cn(-c2c(OC)cccc2OC)c(=O)n1Cc1ccc(-c2ccccc2-c2nnn[nH]2)nc1 [Example 3] FALSE

Determine whether this molecule has Assay C Inhibition (%) no lower than 40%: CCCCc1cn(-c2ccccc2CC)c(=O)n1Cc1ccc(-c2ccccc2-c2nnn[nH]2)nc1 [Example 1] TRUE
